- Tested on: H1 or H9 human embryonic stem cells
- protocol.text: Activin A bioassay: differentiation of human embryonic stem cells to definitive endoderm, cell number and SOX17 intensity by high content analysis (96-well, four days);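 also: total fluorescence of the cell multiplied by cell area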
- Format: cell-based
- experimental.conditions: supernatant concentration 1x, assay dilution 1:20
Listing: Sox 17 Intensity average of selected molecules
Answer with a number only.

Worked cases, Sox 17 Intensity average given:
| molecule | Sox 17 Intensity average |
| --- | --- |
| ACTN41: activin A variant peptide, SEQ ID 42 (protein) GLECDGKVNLCCKKQDFVSFKDIGWNDWIIAPSGYHANSCSGLCPSHIAGTSGSSLSFHSTVINHYRMRGHSPFSDRGACCIPTKLRPMSMLYYDDGQNIIKKDIQNMIVEECGCS | 1.42E+05 |
| ACTN8: activin A variant peptide, SEQ ID 9 (protein) GLECDGKVNYCCKKQDFVSFKDIGWNDWIIAPSGYHANKCSGKCPSHIAGTSGSSLSFHSTVINHYRMRGHSPFSDMGSCCVPTKLRPMSMLYYDDGQNIIKKDIQNMIVEECGCS | 5.578E+06 |
| ACTN11: activin A variant peptide, SEQ ID 12 (protein) GLECDGKVNLCCKKQLFVSFKDIGWNDWIIAPSGYHANHCSGLCPSHIAGTSGSSLSFHSTVINHYRMRGHSPFAQMGACCIPTKLRPMSMLYYDDGQNIIKKDIQNMIVEECGCS | 3.47E+06 |

Would you mind telling me what Sox 17 Intensity average value was observed for ACTN9: activin A variant peptide, SEQ ID 10 (protein) GLECDGKVNYCCKKQDFVSFKDIGWNDWIIAPSGYHANKCTGKCPSHIAGTSGSSLSFHSTVINHYRMRGHSPFADLGACCIPTKLRPMSMLYYDDGQNIIKKDIQNMIVEECGCS ?
5.97E+05

Also ACTN62: activin A variant peptide, SEQ ID 63 (protein) GLECDGKVNICCKKQSFGQAKDIGWNDWIIAPSGYHGGGCTGECPSHIAGTSGSSLSFHSTVINHYRMRGHSPWANLKSCCSPTKLRPMSMLYYDDGQNIIKKDIQNMVVEECGCT , if possible.
1.05E+06

Then what about the molecule ACTN89: activin A variant peptide, SEQ ID 90 (protein) GLECDGKVNICCKKQLFGQTKDIGWNDWIIAPSGYHGGGCSGECPSHIAGTSGSSLSFHSTVINHYRMRGHSPNANLKSCCSPTKLRPMSMLYYDDGQNIIKKDIQNMKVEECGCT ?
3.63E+05

Check ACTN71: activin A variant peptide, SEQ ID 72 (protein) GLECDGKVNICCKKQSFGQAKDIGWNDWIIAPSGYHGGGCTGECPSHIAGTSGSSLSFHSTVINHYRMRGHSPFANLKSCCSPTKLRPMSMLYYDDGQNIIKKDIQNMKVEECGCT too.
2.45E+05

ACTN59: activin A variant peptide, SEQ ID 60 (protein) GLECDGKVNICCKKQLFGQTKDIGWNDWIIAPSGYHGGGCTGECPSHIAGTSGSSLSFHSTVINHYRMRGHSPNANLKSCCAPTKLRPMSMLYYDDGQNIIKKDIQGMKVEECGCV ?
1.09E+06
